molecular target: UniProt:Q04760; experiment: Inhibition of glyoxalase 1
parameter_measured: Ki (µM)
// note: answer is a bare numeric in µM

| compound | parameter_measured | endpoint_unit | value_observed |
| --- | --- | --- | --- |
| CC1=C(CC(=O)O)c2cc(F)ccc2/C1=C\c1ccc([S+](C)[O-])cc1 (configuration not stated) | Ki | µM | 77.9 |
| COc1ccc2c(c1)c(CC(=O)O)c(C)n2C(=O)c1ccc(Cl)cc1 [INDOMETHACIN] | Ki | µM | 18.1 |
| Cc1cc(CC(=O)O)n(C)c1C(=O)c1ccc(Cl)cc1 [ZOMEPIRAC] | Ki | µM | 107 |
| CC(C(=O)O)c1cccc(C(=O)c2ccccc2)c1 (configuration not stated) [KETOPROFEN] | Ki | µM | 414 |
| CC(C(=O)O)c1cccc(Oc2ccccc2)c1 (configuration not stated) [FENOPROFEN] | Ki | µM | 400 |
| COc1ccc2c(c1)c(CC(=O)OCC(=O)O)c(C)n2C(=O)c1ccc(Cl)cc1 [ACEMETACIN] | Ki | µM | 12.9 |

# input for lookup
For Cc1ccc(C(=O)c2ccc(CC(=O)O)n2C)cc1 [TOLMETIN] the compound record lists Ki as 87.8

###

target: Lactoylglutathione lyase (Homo sapiens); assay: Inhibition of human recombinant His-tagged glyoxalase 1 expressed in Escherichia coli BL21 (DE3) preincubated for 20 mins by Dixon plot analysis
parameter_measured: pKi
Interpret pKi as the negative base-10 log of the concentration measured in mol/L.

// below: answered molecules
| molecule | test_system | pKi |
| --- | --- | --- |
| COc1cc(/C=C/C(=O)C(=Cc2ccc(OC)c(OC)c2)C(=O)/C=C/c2ccc(O)c(OC)c2)ccc1O | Lactoylglutathione lyase (Homo sapiens) | 5.34 |
| COc1cc(C=C(C(=O)/C=C/c2ccc(O)c(OC)c2)C(=O)/C=C/c2ccc(O)c(OC)c2)ccc1O | Lactoylglutathione lyase (Homo sapiens) | 5.44 |

# input for lookup
For `O=C(/C=C(O)/C=C/c1ccco1)/C=C/c1ccco1` the molecule record lists pKi as 2.82

###

target: Lactoylglutathione lyase (Homo sapiens, UniProt Q04760); assay: Inhibition of human recombinant His-tagged glyoxalase 1 expressed in Escherichia coli BL21 (DE3) preincubated for 20 mins by Dixon plot analysis
Sequence (Q04760 whole entry): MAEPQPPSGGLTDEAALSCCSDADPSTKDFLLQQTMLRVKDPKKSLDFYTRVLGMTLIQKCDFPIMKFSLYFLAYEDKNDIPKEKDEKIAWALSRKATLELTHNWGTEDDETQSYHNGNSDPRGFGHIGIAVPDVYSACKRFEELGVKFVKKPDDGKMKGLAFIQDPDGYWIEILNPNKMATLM
Overview of recorded log10 Ki for various molecules
Could you please treat all values as log10 of Ki in µM?

| molecule | log10 Ki |
| --- | --- |
| Cc1cc(CC(=O)O)n(C)c1C(=O)c1ccc(Cl)cc1 [ZOMEPIRAC] | 2.53 |

For `Cc1ccc(C(=O)c2ccc(CC(=O)O)n2C)cc1` the molecule record lists log10 Ki as 3.00

For `COc1ccc(C=C(C(C)=O)C(C)=O)cc1` the molecule record lists log10 Ki as 2.58

For CC(C(=O)O)c1cccc(C(=O)c2ccccc2)c1 (configuration not stated) the molecule record lists log10 Ki as 2.93

For `CC(=O)C(=Cc1ccc([N+](=O)[O-])o1)C(C)=O` the molecule record lists log10 Ki as 1.43

For `COc1cc(/C=C/C(O)=C/C(C)=O)ccc1O` the molecule record lists log10 Ki as 1.95

For `COc1ccc(/C=C/C(=O)/C=C(O)/C=C/c2ccc(CO)o2)cc1` the molecule record lists log10 Ki as 1.87

For CC1=C(CC(=O)O)c2cc(F)ccc2/C1=C\c1ccc([S+](C)[O-])cc1 (configuration not stated) the molecule record lists log10 Ki as 2.14
